This collection of values is drawn from patent US20180057888A1.

test system: MDA-MB-231 breast cancer cell line; assay: Colony formation assay (clonogenic survival), parental MDA-MB-231; format: cell-based; conditions: parental 231 cells; similar treatment conditions; read-out: LC50 values
PROPERTY_NAME: CC50

Prompt: Please tell me: CC50 of CN(C)Cc1ccc(-c2nc3cccc4c3n2CCNC4=O)cc1 , system MDA-MB-231 breast cancer cell line?
Completion: ~20 µM
